GI50 values by entry
- System: IGROV-1
- TEST: NCI tumour cell line growth inhibition, 48 h
The source made the active and inactive calls. No stated cut-off is given here; in the data, active = GI50 up to about 1.1 µM and inactive = higher.
PARAMETER_MEASURED: GI50

>  <MOLECULE>
CCc1cc2c(cc1C(=O)CCC(=O)O)CC1(C2)Cc2cc(CC)c(C(=O)CCC(=O)O)cc2C1

>  <TESTED_ON>
IGROV-1

>  <PARAMETER_MEASURED>
GI50

>  <RESULT>
> 100 µM (inactive)

$$$$
>  <MOLECULE>
CCOC(=O)C(NNS(=O)(=O)c1ccc(C)cc1)S(=O)(=O)C(F)(F)C(F)(F)C(F)(F)C(F)(F)F (configuration not stated)

>  <TESTED_ON>
IGROV-1

>  <PARAMETER_MEASURED>
GI50

>  <RESULT>
> 100 µM (inactive)

$$$$
>  <MOLECULE>
C=CC1(C)/C(=N\O)C(C)(CC)C(=O)N1O (configuration not stated)

>  <TESTED_ON>
IGROV-1

>  <PARAMETER_MEASURED>
GI50

>  <RESULT>
> 100 µM (inactive)

$$$$
>  <MOLECULE>
O=C1c2ccccc2OCC1/C=N/O (configuration not stated)

>  <TESTED_ON>
IGROV-1

>  <PARAMETER_MEASURED>
GI50

>  <RESULT>
82.2 µM (inactive)

$$$$
>  <MOLECULE>
COC(=O)C1=C(OC(=O)c2ccccc2)C(C(=O)OC)[C@@]2(O)[C@@H](C(=O)OC)[C@H](C)C[C@@H]1[C@@H]2C(=O)OC (some centres not stated)

>  <TESTED_ON>
IGROV-1

>  <PARAMETER_MEASURED>
GI50

>  <RESULT>
33.8 µM (inactive)

$$$$
>  <MOLECULE>
CC1CC[C@@]2(OC1)O[C@H]1[C@H](O)[C@H]3[C@@H]4CC[C@H]5C[C@@H](OC6OC(CO)C(OC7OC(CO)C(O)C(OC8OCC(O)C(O)C8O)C7OC7OC(CO)C(O)C(O)C7OC7OC(CO)C(O)C(O)C7O)C(O)C6O)[C@H](O)C[C@]5(C)[C@H]4CC[C@]3(C)[C@H]1[C@@H]2C (some centres not stated)

>  <TESTED_ON>
IGROV-1

>  <PARAMETER_MEASURED>
GI50

>  <RESULT>
3.7 µM (inactive)

$$$$
>  <MOLECULE>
CC(C)NC1(C(N)=O)CCN(Cc2ccccc2)CC1

>  <TESTED_ON>
IGROV-1

>  <PARAMETER_MEASURED>
GI50

>  <RESULT>
> 100 µM (inactive)

$$$$

Every entry's value here was drawn from ChEMBL document CHEMBL1201862.
